For each record, write down the corresponding growth inhibition.
experiment: NCI Yeast Anticancer Drug Screen. Data for the sgs1 mgt1 strain (AID 161);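 further: 0% = growth of cultures given vehicle only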; conditions: S. cerevisiae sgs1 mgt1 strain, at 5.0 µM (retest, dose inferred, filed as 0.5), stronger effect = higher value
This is part of a sample that, as a whole, favours compounds with a hit. Of some 79,000 tested, about 15% had one in any assay.
# unit: % | format: bare number

Which growth inhibition reading was recorded for the compound "O=Cc1cc2ccccc2cc1C=O" ? 84

Which growth inhibition reading was recorded for the compound "O=C1c2cc(Br)cc(Br)c2NCCC1(Br)Br" ? 100

Quick one: growth inhibition of "N#CC1(C#N)C(C#N)(C#N)C12CCCC2" ? 4

Query (compound): Clc1ccc(-c2csc(NCC3CCCO3)n2)cc1 (stereo unspecified) ; field requested: growth inhibition 34

Name the recorded growth inhibition for "CSC(=S)N/N=C(C)/C=C/c1ccccc1" . 25

I'd like to know its growth inhibition. The compound in question is O=S1OCCS1 (stereo unspecified) 11

What value of growth inhibition has been reported for the following compound? "CCCCCCCCCCCCN(CCO)CCO" 63

What value of growth inhibition has been recorded for this entry: "CC(CCC(=O)O)(c1cc(Br)c(O)c(Br)c1)c1cc(Br)c(O)c(Br)c1" -2

Query: growth inhibition; subject: CCCCNC(=S)NC1OC(CO)C(O)C(O)C1O (stereo unspecified) -1

// growth inhibition lookup, key: Cc1nnc(NS(=O)(=O)c2ccc(N=Nc3cc(N=Nc4ccc(S(=O)(=O)Nc5nnc(C)s5)cc4)c4c(NC(=O)C(Cl)Cl)cccc4c3OC(=O)C(Cl)Cl)cc2)s1 (tested in a mixture with another compound) 89

Param item = CCCCCNC(=O)C1C(=O)N(CCCCC)C(=O)/C1=N\N (stereo unspecified) ; retrieve measured growth inhibition. 2

---

test: NCI Yeast Anticancer Drug Screen. Data for the rad50 strain (AID 155);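 further: 0% = growth of vehicle-only cultures of the same strain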; settings: S. cerevisiae rad50 strain growth inhibition; at 50.0 µM (retest, dose inferred, filed as 5.0)
Compounds without any hit were thinned out: in the full panel of roughly 79,000, 15% have a hit. The source made the active and inactive calls. Cut-off read from the data, not from the text of the source: active = growth inhibition above about 70%; inactive = the rest.
Write down the outcome that applies. Available outcomes: YES (active), NO (inactive)

What was the test verdict on c1ccc(C(CNCCN2CCCCCC2)C2CCCCC2)cc1 (stereo unspecified) ? NO

What did this assay record as the result for "COc1ccc(C(O)(c2ccccc2)c2ccccc2)cc1" ? YES

Check the results log: what was the call for "CCOC(=O)C(=O)N1C(C)=C(C(=O)OCC)CC(C(=O)OCC)=C1C" ? NO

What classification did "O=S(=O)(/C=C/c1cccnc1)/C=C/c1cccnc1" end up with in this test? NO

Per the records of this test, what outcome belongs to "CC(=O)/C(=C\c1cccc(Cl)c1)C(=O)CCN(C)C" ? NO

Hi team, can someone confirm the assay call for "Oc1c(Cl)cc(Cl)cc1C=NCCSc1ccc(Cl)cc1" ? YES

# lookup: test call for "CC(C)c1ncc(-c2ccccc2)cc1-c1ccccc1" YES

For "Nc1ccc2c(c1)Cc1c(Cl)cccc1-2" , what call appears in the results of this test? YES

Query: recorded result category for "CS(=O)(=O)c1nnnn1-c1ccccc1" in this test YES

Per the records of this test, what outcome belongs to "CC1=C(C(=S)Nc2ccc(Cl)c(C(=O)OC(C)C)c2)SCCO1" ? YES

Given "Cc1cc(C[P+](c2ccccc2)(c2ccccc2)c2ccccc2)c(C)cc1C[P+](c1ccccc1)(c1ccccc1)c1ccccc1" , state the outcome it received in this test. NO
